System: Escherichia coli TOP10
Assay Name: shrunken log2 fold change of peptide-encoding DNA abundance (4.5 h post-induction vs induction); higher = less antimicrobial activity (less host growth inhibition)
Experimental Setup: time post-induction: 4.5 h; library: site-saturation at positions 5, 18, 19, 20
Measured shrunken log2 fold change accompanies every entry in the list below.
Measured Attribute: shrunken log2 fold change

{"Residue Codes": "RRIRLRPPRLPRPRPRPYNLPRP", "Target Or Test System": "Escherichia coli TOP10", "Recorded Result": -0.417}
{"Residue Codes": "RRIRRRPPRLPRPRPRPQSAPRP", "Target Or Test System": "Escherichia coli TOP10", "Recorded Result": 0.123}
{"Residue Codes": "RRIRKRPPRLPRPRPRPRRWPRP", "Target Or Test System": "Escherichia coli TOP10", "Recorded Result": 0.717}
{"Residue Codes": "RRIRDRPPRLPRPRPRPRGIPRP", "Target Or Test System": "Escherichia coli TOP10", "Recorded Result": -0.0372}
{"Residue Codes": "RRIRTRPPRLPRPRPRPIQYPRP", "Target Or Test System": "Escherichia coli TOP10", "Recorded Result": -0.044}
{"Residue Codes": "RRIRARPPRLPRPRPRPNKHPRP", "Target Or Test System": "Escherichia coli TOP10", "Recorded Result": -0.171}
{"Residue Codes": "RRIRYRPPRLPRPRPRPHGMPRP", "Target Or Test System": "Escherichia coli TOP10", "Recorded Result": -0.922}
{"Residue Codes": "RRIRQRPPRLPRPRPRPFISPRP", "Target Or Test System": "Escherichia coli TOP10", "Recorded Result": -0.0195}
{"Residue Codes": "RRIRKRPPRLPRPRPRPQKIPRP", "Target Or Test System": "Escherichia coli TOP10", "Recorded Result": -0.0746}
{"Residue Codes": "RRIRWRPPRLPRPRPRPVIWPRP", "Target Or Test System": "Escherichia coli TOP10", "Recorded Result": 0.147}

###

Tested on: Escherichia coli TOP10
Assay Name: shrunken log2 fold change of peptide-encoding DNA abundance (4.5 h post-induction vs induction); higher = less antimicrobial activity (less host growth inhibition)
Experimental Setup: time post-induction: 4.5 h; library: site-saturation at positions 5, 18, 19, 20
Lab note: anything with shrunken log2 fold change at or over 0.1 counts as label 1; the rest go in label 0.

{"Residue Codes": "RRIRLRPPRLPRPRPRPSFWPRP", "Class Name": "label 0"}
{"Residue Codes": "RRIRERPPRLPRPRPRPMANPRP", "Class Name": "label 0"}
{"Residue Codes": "RRIRTRPPRLPRPRPRPGPSPRP", "Class Name": "label 1"}
{"Residue Codes": "RRIRPRPPRLPRPRPRPANGPRP", "Class Name": "label 0"}
{"Residue Codes": "RRIRKRPPRLPRPRPRPFSKPRP", "Class Name": "label 0"}
{"Residue Codes": "RRIRRRPPRLPRPRPRPGDKPRP", "Class Name": "label 0"}
{"Residue Codes": "RRIRARPPRLPRPRPRPWQYPRP", "Class Name": "label 0"}
{"Residue Codes": "RRIRNRPPRLPRPRPRPMYLPRP", "Class Name": "label 0"}
{"Residue Codes": "RRIRWRPPRLPRPRPRPACGPRP", "Class Name": "label 1"}
{"Residue Codes": "RRIRKRPPRLPRPRPRPIPNPRP", "Class Name": "label 1"}

###

System: Escherichia coli TOP10
Assay Name: shrunken log2 fold change of peptide-encoding DNA abundance (4.5 h post-induction vs induction); higher = less antimicrobial activity (less host growth inhibition)
Experimental Setup: time post-induction: 4.5 h; library: site-saturation at positions 5, 18, 19, 20

{"Residue Codes": "RRIRARPPRLPRPRPRPIDWPRP", "Target Or Test System": "Escherichia coli TOP10", "shrunken log2 fold change": 0.0607}
{"Residue Codes": "RRIRERPPRLPRPRPRPWSIPRP", "Target Or Test System": "Escherichia coli TOP10", "shrunken log2 fold change": 0.0521}
{"Residue Codes": "RRIRLRPPRLPRPRPRPSPDPRP", "Target Or Test System": "Escherichia coli TOP10", "shrunken log2 fold change": 0.164}
{"Residue Codes": "RRIRQRPPRLPRPRPRPMYYPRP", "Target Or Test System": "Escherichia coli TOP10", "shrunken log2 fold change": 0.0048}
{"Residue Codes": "RRIRRRPPRLPRPRPRPTLLPRP", "Target Or Test System": "Escherichia coli TOP10", "shrunken log2 fold change": 0.465}
{"Residue Codes": "RRIRWRPPRLPRPRPRPTMGPRP", "Target Or Test System": "Escherichia coli TOP10", "shrunken log2 fold change": 0.272}
{"Residue Codes": "RRIRSRPPRLPRPRPRPMTAPRP", "Target Or Test System": "Escherichia coli TOP10", "shrunken log2 fold change": -0.0379}
{"Residue Codes": "RRIRCRPPRLPRPRPRPRNGPRP", "Target Or Test System": "Escherichia coli TOP10", "shrunken log2 fold change": 0.124}
{"Residue Codes": "RRIRDRPPRLPRPRPRPPNEPRP", "Target Or Test System": "Escherichia coli TOP10", "shrunken log2 fold change": -0.0231}
{"Residue Codes": "RRIRWRPPRLPRPRPRPHEFPRP", "Target Or Test System": "Escherichia coli TOP10", "shrunken log2 fold change": -0.0844}
{"Residue Codes": "RRIRVRPPRLPRPRPRPWPTPRP", "Target Or Test System": "Escherichia coli TOP10", "shrunken log2 fold change": 0.266}

###

Measured shrunken log2 fold change accompanies every entry in the list below.
System: Escherichia coli TOP10;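 note: peptides expressed intracellularly from a pBAD plasmid library in pooled LB shake-flask culture, induced with 0.3% L-arabinose, DNA abundance read by NGS, three biological replicates, DESeq2 with apeglm shrinkage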
Assay Name: shrunken log2 fold change of peptide-encoding DNA abundance (4.5 h post-induction vs induction); higher = less antimicrobial activity (less host growth inhibition)
Experimental Setup: time post-induction: 4.5 h; library: site-saturation at positions 5, 18, 19, 20
Measured Attribute: shrunken log2 fold change

{"Residue Codes": "RRIRIRPPRLPRPRPRPYGAPRP", "Target Or Test System": "Escherichia coli TOP10", "Recorded Result": -0.199}
{"Residue Codes": "RRIRSRPPRLPRPRPRPYFVPRP", "Target Or Test System": "Escherichia coli TOP10", "Recorded Result": -1.14}
{"Residue Codes": "RRIRKRPPRLPRPRPRPRNCPRP", "Target Or Test System": "Escherichia coli TOP10", "Recorded Result": 0.0613}
{"Residue Codes": "RRIRTRPPRLPRPRPRPVQFPRP", "Target Or Test System": "Escherichia coli TOP10", "Recorded Result": -0.0192}
{"Residue Codes": "RRIRARPPRLPRPRPRPKACPRP", "Target Or Test System": "Escherichia coli TOP10", "Recorded Result": 0.19}
{"Residue Codes": "RRIRPRPPRLPRPRPRPPLVPRP", "Target Or Test System": "Escherichia coli TOP10", "Recorded Result": 0.389}
{"Residue Codes": "RRIRCRPPRLPRPRPRPWMYPRP", "Target Or Test System": "Escherichia coli TOP10", "Recorded Result": -0.0169}
{"Residue Codes": "RRIRIRPPRLPRPRPRPTHKPRP", "Target Or Test System": "Escherichia coli TOP10", "Recorded Result": 0.201}
{"Residue Codes": "RRIRKRPPRLPRPRPRPMRPPRP", "Target Or Test System": "Escherichia coli TOP10", "Recorded Result": 1.22}
{"Residue Codes": "RRIRFRPPRLPRPRPRPKCFPRP", "Target Or Test System": "Escherichia coli TOP10", "Recorded Result": -0.108}
{"Residue Codes": "RRIRPRPPRLPRPRPRPEVCPRP", "Target Or Test System": "Escherichia coli TOP10", "Recorded Result": 0.138}
{"Residue Codes": "RRIRMRPPRLPRPRPRPHRGPRP", "Target Or Test System": "Escherichia coli TOP10", "Recorded Result": 0.0388}
{"Residue Codes": "RRIRWRPPRLPRPRPRPGGCPRP", "Target Or Test System": "Escherichia coli TOP10", "Recorded Result": 0.732}
{"Residue Codes": "RRIRYRPPRLPRPRPRPNVDPRP", "Target Or Test System": "Escherichia coli TOP10", "Recorded Result": -1.26}
{"Residue Codes": "RRIRGRPPRLPRPRPRPYAPPRP", "Target Or Test System": "Escherichia coli TOP10", "Recorded Result": 0.116}
{"Residue Codes": "RRIRPRPPRLPRPRPRPIIKPRP", "Target Or Test System": "Escherichia coli TOP10", "Recorded Result": -0.417}
{"Residue Codes": "RRIRQRPPRLPRPRPRPHCLPRP", "Target Or Test System": "Escherichia coli TOP10", "Recorded Result": 0.0735}
{"Residue Codes": "RRIRERPPRLPRPRPRPKFIPRP", "Target Or Test System": "Escherichia coli TOP10", "Recorded Result": -0.144}
{"Residue Codes": "RRIRKRPPRLPRPRPRPAQWPRP", "Target Or Test System": "Escherichia coli TOP10", "Recorded Result": 0.421}
{"Residue Codes": "RRIRVRPPRLPRPRPRPQTYPRP", "Target Or Test System": "Escherichia coli TOP10", "Recorded Result": -0.647}
{"Residue Codes": "RRIRLRPPRLPRPRPRPVGYPRP", "Target Or Test System": "Escherichia coli TOP10", "Recorded Result": -0.0152}
{"Residue Codes": "RRIRERPPRLPRPRPRPTSVPRP", "Target Or Test System": "Escherichia coli TOP10", "Recorded Result": -0.028}
{"Residue Codes": "RRIRHRPPRLPRPRPRPTSRPRP", "Target Or Test System": "Escherichia coli TOP10", "Recorded Result": 0.0698}
{"Residue Codes": "RRIRCRPPRLPRPRPRPEGAPRP", "Target Or Test System": "Escherichia coli TOP10", "Recorded Result": 0.766}
{"Residue Codes": "RRIRWRPPRLPRPRPRPFIKPRP", "Target Or Test System": "Escherichia coli TOP10", "Recorded Result": -0.686}
